# System: Rats with calcium chloride induced arrhythmias
# ASSAY REMARKS: Calcium chloride induced arrhythmias in narcotised rats (prophylactic i.v. administration)
# Assay type: in vivo
# PARTICULARS: 10 mg/kg I.V.; control 10.9 min.

| COMPOUND | average period of arrhythmia / min |
| --- | --- |
| COc1cccc(CC2Cc3ccc(OC)c(O)c3-c3cc(OC)ccc3CCN2C)c1 (single isomer, unassigned; (-)) | 4.9 |
| COc1ccc2c(c1)-c1c(ccc(OC)c1O)CC(Cc1ccccc1Cl)N(C)CC2 (single isomer, unassigned; (-)) | 2.3 |
| COc1ccc2c(c1)-c1c(ccc(OC)c1O)CC(Cc1ccc(F)cc1)N(C)CC2 (single isomer, unassigned; (-)) | 5.4 |
| CCN(CC)CCNC(=O)c1ccc(N)cc1 [procainamide, reference compound] | 7.3 |

----------
# ASSAY REMARKS: in vivo
# PARTICULARS: mouse, po
Label t when LD50 at 168 h is strictly below 1000 mg/kg; at or above that, label f.

| MOLECULE | CATEGORY LABEL |
| --- | --- |
| COc1ccc2c(c1)-c1c(ccc(OC)c1O)CC(Cc1ccccc1Cl)N(C)CC2 (single isomer, unassigned; (-)) | f |
| COc1ccc2c(c1)-c1c(ccc(OC)c1O)CC(Cc1c(Cl)cccc1Cl)N(C)CC2 (single isomer, unassigned; (-)) | f |
| COc1ccc2c(c1)-c1c(ccc(OC)c1O)CC(CCc1ccccc1)N(C)CC2 (single isomer, unassigned; (+)) | t |
| CCN(CC)CCNC(=O)c1ccc(N)cc1 [procainamide, reference compound] | f |
| COc1ccc2c(c1)-c1c(ccc(OC)c1OC(C)=O)CC(Cc1ccccc1)N(C)CC2 (single isomer, unassigned; (-)) | f |
| COc1ccc2c(c1)-c1c(ccc(OC)c1O)CC(Cc1ccc(F)cc1)N(C)CC2 (single isomer, unassigned; (-)) | t |
| COc1cccc(CC2Cc3ccc(OC)c(OC(C)=O)c3-c3cc(OC)ccc3CCN2C)c1 (single isomer, unassigned; (-)) | t |
| COc1ccc2c(c1)-c1c(ccc(OC)c1O)CC(Cc1ccccc1)N(C)CC2 (single isomer, unassigned; (-)) | t |
| COc1ccc2c(c1)-c1c(ccc(OC)c1O)CC(Cc1cccc(C)c1)N(C)CC2 (single isomer, unassigned; (-)) | f |

----------
# System: Rats with calcium chloride induced arrhythmias
# ASSAY REMARKS: Calcium chloride induced arrhythmias in narcotised rats (prophylactic i.v. administration)
# Format: in vivo
# PARTICULARS: 5 mg/kg I.V.; control 10.9 min.
Overview of recorded average period of arrhythmia for various compounds

| COMPOUND | ASSAY SYSTEM | average period of arrhythmia |
| --- | --- | --- |
| COc1ccc2c(c1)-c1c(ccc(OC)c1O)CC(Cc1cccc(C)c1)N(C)CC2 (single isomer, unassigned; (-)) [Example 12] | Rats with calcium chloride induced arrhythmias | 6.4 min |
| COc1ccc2c(c1)-c1c(ccc(OC)c1OC)CC(Cc1ccccc1)N(C)CC2 (racemic) [Example 5] | Rats with calcium chloride induced arrhythmias | 4.1 min |
| COc1ccc2c(c1)-c1c(ccc(OC)c1O)CC(Cc1ccccc1Cl)N(C)CC2 (single isomer, unassigned; (-)) [Example 4] | Rats with calcium chloride induced arrhythmias | 4.6 min |
| COc1ccc2c(c1)-c1c(ccc(OC)c1O)CC(Cc1ccccc1)NCC2 (stereo not shown) [Example 9] | Rats with calcium chloride induced arrhythmias | 6.8 min |

----------
# System: rabbit eye
# ASSAY REMARKS: Local anesthetic action on the rabbit eye (corneal reflex)
# Format: in vivo, rabbits
# PARTICULARS: concentration 2.0 %; observation discontinued after 60 minutes

| MOLECULE | Period of Action |
| --- | --- |
| COc1cccc(CC2Cc3ccc(OC)c(OC)c3-c3cc(OC)ccc3CCN2C)c1 (single isomer, unassigned; (-)) [Example 6] | > 60 min |
| COc1ccc2c(c1)-c1c(ccc(OC)c1OC(C)=O)CC(Cc1ccccc1)N(C)CC2 (single isomer, unassigned; (-)) [Example 8] | > 60 min |
| COc1ccc2c(c1)-c1c(ccc(OC)c1O)CC(Cc1c(Cl)cccc1Cl)N(C)CC2 (single isomer, unassigned; (-)) [Example 11] | > 60 min |
| CCN(CC)CCNC(=O)c1ccc(N)cc1 [procainamide, reference compound] | 0 min |

----------
# ASSAY REMARKS: in vivo
# PARTICULARS: mouse, po
# LD50 at 168 h per record follows
TEST READOUT: LD50 at 168 h

| COMPOUND | VALUE OBSERVED |
| --- | --- |
| COc1cccc(CC2Cc3ccc(OC)c(O)c3-c3cc(OC)ccc3CCN2C)c1 (single isomer, unassigned; (-)) | 1000 mg/kg |
| COc1ccc2c(c1)-c1c(ccc(OC)c1OC)CC(Cc1ccccc1)N(C)CC2 (racemic) | ~1000 mg/kg |
| COc1cccc(CC2Cc3ccc(OC)c(OC)c3-c3cc(OC)ccc3CCN2C)c1 (single isomer, unassigned; (-)) | ~300 mg/kg |

Where do these numbers come from? They come from patent US4415495A.
